Reported values of protein stability index for individual entries
B1: TRAF3IP2 (parent)
chain: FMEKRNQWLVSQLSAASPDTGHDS

variants of: B1; assay: protein stability index of a GFP-peptide fusion (GPS, HEK-293T) (PSI 1-6); higher = more stable; conditions: c terminus: a fixed tail appended;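 also: lentivirally expressed fusions sorted by FACS into six bins by GFP to DsRed ratio, PSI derived from sequencing read proportions per bin multiplied by bin number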
Field format: numeric only.

# annotated cases, reported protein stability index shown
# sequence-record, protein stability index
rows = [
    ("FMQKRNQWLVSQLSAASPDTGHDS [E3Q]", 2.27),
    ("FMEKRNQWLVSQCSAASPDTGHDS [L13C]", 1.91),
    ("FMEKRNQWLVSQLSAAFPDTGHDS [S17F]", 1.88),
    ("FMEKRNQWLVSPLSAASPDTGHDS [Q12P]", 2.71),
    ("DMEKRNQWLVSQLSAASPDTGHDS [F1D]", 5.05),
    ("FMEKRNQWLVSQLSAACPDTGHDS [S17C]", 2.98),
    ("FMEKRNQALVSQLSAASPDTGHDS [W8A]", 4.75),
    ("FMEKRNQWLVSQLCAASPDTGHDS [S14C]", 2.15),
]

// query Which protein stability index is listed for FMEKRNCWLVSQLSAASPDTGHDS [Q7C] ?
// result 1.87

// query Which protein stability index is listed for FMEKRNQWLVSQLSPASPDTGHDS [A15P] ?
// result 2.75

// query Which protein stability index is listed for FMEKRNQWLVSQLSAASTDTGHDS [P18T] ?
// result 2.94

// query Which protein stability index is listed for PMEKRNQWLVSQLSAASPDTGHDS [F1P] ?
// result 3.95

// query Which protein stability index is listed for FMEKRNQWLVSQLSAVSPDTGHDS [A16V] ?
// result 2.26
